test system: Rat white adipocytes; assay: Inhibition of the differentiation of adipocytes (Oil Red O); format: cell-based; conditions: Rattus norvegicus, Adipocyte, 120 h, 100 nM test compound; 5 days; Oil Red O ABS550; control = 100%, blank = 0%; Table 3; read-out: Rate of Differentiation (%)
Structures can show the parent of a compound that is named as a salt.
activity at 0.1 µM listing for selected molecules.
value kind: activity at 0.1 µM (%)

In [3]: df
Out[3]:
                                   molecule      target_or_system  reading
0  Nc1ccc(-c2csc(NC(=O)c3cc([N+](=O)[O-])ccc3Cl)n2)cc1  Rat white adipocytes     57.9
1  NC(=O)NCCc1ccc(NC(=O)c2cc([N+](=O)[O-])ccc2Cl)cc1  Rat white adipocytes     45.9
2  CCCCCCCCN(CCCCC)c1ccc(-c2ccc(NC(=O)c3cc([N+](=O)[O-])ccc3Cl)cc2)cc1 [Example 221, mono-hydrochloride]  Rat white adipocytes     40.2
3  O=C(Nc1ccc(-c2ccc(NC(=S)Nc3ccncc3)cc2)cc1)c1cc([N+](=O)[O-])ccc1Cl  Rat white adipocytes       39
4  CCCN(C)c1ccc(-c2ccc(NC(=O)c3cc([N+](=O)[O-])ccc3Cl)cc2)cc1  Rat white adipocytes     47.4
5  NC(=O)Nc1ccc(-c2ccc(NC(=O)c3cc([N+](=O)[O-])ccc3Cl)cc2)cc1  Rat white adipocytes     41.1
6  CC(=O)Nc1ccc(-c2ccc(NC(=O)c3cc([N+](=O)[O-])ccc3Cl)cc2)cc1  Rat white adipocytes     53.6
